# study target: 5-hydroxytryptamine receptor 6 (Homo sapiens)
# assay info: Antagonist activity at human 5HT6 receptor expressed in human astrocytoma cells assessed as inhibition of cAMP production
measurement kind: IC50 (nM)

compound	measurement kind	experimental result
Cc1cccc(S(=O)(=O)c2ccc3c(c2)O[C@H]2CNCC[C@@H]32)c1 (racemic)	IC50	227
O=S(=O)(c1cccc(F)c1)c1ccc2c(c1)O[C@H]1CNCC[C@@H]21 (racemic)	IC50	33
O=S(=O)(c1cccc(C(F)(F)F)c1)c1ccc2c(c1)O[C@H]1CNCC[C@@H]21 (racemic)	IC50	357
O=S(=O)(c1cc(F)cc(Cl)c1)c1ccc2c(c1)O[C@H]1CNCC[C@@H]21 (single isomer, unassigned; enantiomer 1)	IC50	790

* * *

# study target: Muscarinic acetylcholine receptor M4 (Homo sapiens, UniProt P08173)
# Sequence (P08173 whole entry): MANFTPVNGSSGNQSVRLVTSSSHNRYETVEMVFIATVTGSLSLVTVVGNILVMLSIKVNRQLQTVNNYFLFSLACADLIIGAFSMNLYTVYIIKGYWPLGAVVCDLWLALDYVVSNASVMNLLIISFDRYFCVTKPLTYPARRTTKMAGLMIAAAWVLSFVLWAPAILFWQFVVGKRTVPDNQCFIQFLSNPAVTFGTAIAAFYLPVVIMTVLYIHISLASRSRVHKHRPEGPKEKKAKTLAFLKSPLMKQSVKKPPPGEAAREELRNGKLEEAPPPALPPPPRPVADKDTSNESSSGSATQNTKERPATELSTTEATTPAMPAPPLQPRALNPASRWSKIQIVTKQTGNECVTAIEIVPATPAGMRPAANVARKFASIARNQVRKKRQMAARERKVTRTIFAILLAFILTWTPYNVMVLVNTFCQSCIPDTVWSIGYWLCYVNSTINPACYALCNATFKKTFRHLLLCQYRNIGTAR
pIC50: −log10 of the molar value.

compound	pIC50
COc1cc(OC(C)C)cc(S(=O)(=O)c2ccc3c(c2)O[C@H]2CNCC[C@@H]32)c1.Cl (single isomer, unassigned; enantiomer 1)	5.32

* * *

# study target: Cytochrome P450 2D6 (Homo sapiens, UniProt P10635)
# Sequence (P10635 whole entry): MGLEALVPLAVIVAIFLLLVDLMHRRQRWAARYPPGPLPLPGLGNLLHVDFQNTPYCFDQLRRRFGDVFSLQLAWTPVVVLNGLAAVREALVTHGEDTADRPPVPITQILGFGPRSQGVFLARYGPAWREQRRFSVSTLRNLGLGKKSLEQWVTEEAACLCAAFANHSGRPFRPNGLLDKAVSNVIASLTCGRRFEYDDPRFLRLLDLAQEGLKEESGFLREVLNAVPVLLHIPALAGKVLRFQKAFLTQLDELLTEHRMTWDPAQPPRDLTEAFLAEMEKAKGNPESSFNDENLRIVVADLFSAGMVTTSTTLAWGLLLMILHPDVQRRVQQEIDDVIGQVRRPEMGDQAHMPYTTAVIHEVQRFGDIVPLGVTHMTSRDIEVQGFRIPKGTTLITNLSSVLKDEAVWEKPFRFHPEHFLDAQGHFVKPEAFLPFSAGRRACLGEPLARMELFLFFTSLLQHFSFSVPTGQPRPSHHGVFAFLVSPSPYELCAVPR
pIC50: −log10 of the molar value.

molecule	pIC50
COc1cc(OC(C)C)cc(S(=O)(=O)c2ccc3c(c2)O[C@H]2CNCC[C@@H]32)c1.Cl (single isomer, unassigned; enantiomer 1)	< 4.52

* * *

# assay info: Inhibition of calcium channel-L type

molecule	measure unit	IC50
COc1cc(OC(C)C)cc(S(=O)(=O)c2ccc3c(c2)O[C@H]2CNCC[C@@H]32)c1.Cl (single isomer, unassigned; enantiomer 1)	µM	3.9

* * *

# assay info: Aqueous solubility at pH 7.4
# Type: physicochemical
# test settings: buffer
measurement kind: solubility

compound	experimental result
COc1cc(OC(C)C)cc(S(=O)(=O)c2ccc3c(c2)O[C@H]2CNCC[C@@H]32)c1.Cl (single isomer, unassigned; enantiomer 1)	> 130 µg/mL

* * *

# study target: 5-hydroxytryptamine receptor 6 (Homo sapiens)
# assay info: Displacement of [3H]LSD from human recombinant 5HT6 receptor
pKi: −log10 of the molar value.

molecule	pKi
CC(C)Oc1cccc(S(=O)(=O)c2ccc3c(c2)O[C@H]2CNCC[C@@H]32)c1.Cl (single isomer, unassigned; enantiomer 2)	7.51
CC(C)Oc1cccc(S(=O)(=O)c2ccc3c(c2)O[C@H]2CNCC[C@@H]32)c1F (single isomer, unassigned; enantiomer 2)	7.68
CC(C)Oc1cc(F)cc(S(=O)(=O)c2ccc3c(c2)O[C@H]2CNCC[C@@H]32)c1 (single isomer, unassigned; enantiomer 1)	7.31

* * *

# study target: 5-hydroxytryptamine receptor 6 (Homo sapiens, UniProt P50406)
# Sequence (P50406 whole entry): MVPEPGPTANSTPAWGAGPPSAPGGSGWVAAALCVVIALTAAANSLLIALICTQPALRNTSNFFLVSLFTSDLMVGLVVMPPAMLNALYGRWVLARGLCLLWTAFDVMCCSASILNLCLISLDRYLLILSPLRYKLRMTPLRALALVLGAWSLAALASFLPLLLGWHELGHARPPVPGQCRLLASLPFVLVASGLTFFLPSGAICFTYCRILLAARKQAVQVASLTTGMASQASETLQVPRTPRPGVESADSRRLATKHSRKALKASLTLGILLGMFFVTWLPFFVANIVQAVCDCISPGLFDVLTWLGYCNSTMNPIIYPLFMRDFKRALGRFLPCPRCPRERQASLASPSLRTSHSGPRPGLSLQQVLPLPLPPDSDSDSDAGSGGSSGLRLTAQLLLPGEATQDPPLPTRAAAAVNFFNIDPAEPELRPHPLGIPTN
# assay info: Antagonist activity at human 5HT6 receptor expressed in human astrocytoma cells assessed as inhibition of cAMP production
# Type: functional, cell-based
Returns the class for an entry based on its IC50. Class ranges: lower range (below 60 nM), middle range (60 nM to below 200 nM), upper range (200 nM or more)

compound	assigned category
O=S(=O)(c1cc(F)cc(Cl)c1)c1ccc2c(c1)O[C@H]1CNCC[C@@H]21 (single isomer, unassigned; enantiomer 2)	middle range
O=S(=O)(c1cc(F)cc(F)c1)c1ccc2c(c1)O[C@H]1CNCC[C@@H]21 (single isomer, unassigned; enantiomer 1)	upper range
O=S(=O)(c1ccc2c(c1)O[C@H]1CNCC[C@@H]21)c1cccc(Cl)c1Cl (single isomer, unassigned; enantiomer 1)	lower range
COc1cc(OC(C)C)cc(S(=O)(=O)c2ccc3c(c2)O[C@H]2CNCC[C@@H]32)c1.Cl (single isomer, unassigned; enantiomer 2)	lower range
COc1cc(OC(C)C)cc(S(=O)(=O)c2ccc3c(c2)O[C@H]2CNCC[C@@H]32)c1.Cl (single isomer, unassigned; enantiomer 1)	middle range
O=S(=O)(c1ccc2c(c1)O[C@H]1CNCC[C@@H]21)c1ccccc1F (racemic)	middle range
O=S(=O)(c1cc(F)cc(F)c1)c1ccc2c(c1)O[C@H]1CNCC[C@@H]21 (single isomer, unassigned; enantiomer 2)	middle range
O=S(=O)(c1ccc2c(c1)O[C@H]1CNCC[C@@H]21)c1cccc(Cl)c1Cl (single isomer, unassigned; enantiomer 2)	lower range
Cc1ccc(S(=O)(=O)c2ccc3c(c2)O[C@H]2CNCC[C@@H]32)cc1 (racemic)	upper range
O=S(=O)(c1cccc(Cl)c1)c1ccc2c(c1)O[C@H]1CNCC[C@@H]21 (racemic)	lower range
O=S(=O)(c1ccc2c(c1)O[C@H]1CNCC[C@@H]21)c1ccccc1Cl (racemic)	middle range
COc1cccc(S(=O)(=O)c2ccc3c(c2)O[C@H]2CNCC[C@@H]32)c1 (racemic)	upper range
O=S(=O)(c1ccc2c(c1)O[C@H]1CNCC[C@@H]21)c1ccccc1-c1ccccc1 (racemic)	middle range
CC(C)Oc1cccc(S(=O)(=O)c2ccc3c(c2)O[C@H]2CNCC[C@@H]32)c1 (racemic)	upper range

* * *

# assay info: Apparent permeability from apical to basal side of MDCK2-MDR1
# Format: ADME, cell-based, Canis lupus familiaris, MDCK-II
# test settings: dog, MDCK-MDR1

compound	Papp A→B, ×10⁻⁶ cm/s
COc1cc(OC(C)C)cc(S(=O)(=O)c2ccc3c(c2)O[C@H]2CNCC[C@@H]32)c1.Cl (single isomer, unassigned; enantiomer 1)	2.88

* * *

Protein target, amino acids: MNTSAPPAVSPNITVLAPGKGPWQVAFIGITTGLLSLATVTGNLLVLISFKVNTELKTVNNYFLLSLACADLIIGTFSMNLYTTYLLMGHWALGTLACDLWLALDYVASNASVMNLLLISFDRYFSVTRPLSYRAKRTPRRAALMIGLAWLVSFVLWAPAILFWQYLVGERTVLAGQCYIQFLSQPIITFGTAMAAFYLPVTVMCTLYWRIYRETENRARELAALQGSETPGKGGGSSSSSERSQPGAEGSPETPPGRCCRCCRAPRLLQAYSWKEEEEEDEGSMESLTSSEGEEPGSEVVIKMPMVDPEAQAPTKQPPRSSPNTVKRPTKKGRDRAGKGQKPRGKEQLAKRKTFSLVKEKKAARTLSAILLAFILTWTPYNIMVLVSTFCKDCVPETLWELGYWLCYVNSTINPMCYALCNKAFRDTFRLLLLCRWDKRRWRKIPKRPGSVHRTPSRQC
pIC50: −log10 of the molar value.

compound	pIC50
COc1cc(OC(C)C)cc(S(=O)(=O)c2ccc3c(c2)O[C@H]2CNCC[C@@H]32)c1.Cl (single isomer, unassigned; enantiomer 1)	5.66

* * *

# assay info: Oral bioavailability in rat at 5 mg/kg
# Type: ADME, organism-based
# test settings: in vivo
measurement kind: bioavailability

molecule	experimental result
COc1cc(OC(C)C)cc(S(=O)(=O)c2ccc3c(c2)O[C@H]2CNCC[C@@H]32)c1.Cl (single isomer, unassigned; enantiomer 2)	11%

* * *

# assay info: Plasma protein binding in human
# Format: ADME, cell-free
# test settings: read-out: PPB (converted)

compound	fraction unbound
COc1cc(OC(C)C)cc(S(=O)(=O)c2ccc3c(c2)O[C@H]2CNCC[C@@H]32)c1.Cl (single isomer, unassigned; enantiomer 1)	0.046

* * *

# assay info: Half life in dog liver microsomes
# Type: ADME, Canis lupus familiaris, Microsome
measurement kind: half-life

molecule	experimental result
Cl.O=S(=O)(c1ccccc1)c1ccc2c3c(oc2c1)CNCC3	10 min
Cl.O=S(=O)(c1ccccc1)c1ccc2c(c1)O[C@H]1CNCC[C@@H]21 (racemic)	> 40 min
COc1cc(OC(C)C)cc(S(=O)(=O)c2ccc3c(c2)O[C@H]2CNCC[C@@H]32)c1.Cl (single isomer, unassigned; enantiomer 1)	> 40 min

* * *

# study target: 5-hydroxytryptamine receptor 6 (Rattus norvegicus, UniProt P31388)
# Sequence (P31388 whole entry): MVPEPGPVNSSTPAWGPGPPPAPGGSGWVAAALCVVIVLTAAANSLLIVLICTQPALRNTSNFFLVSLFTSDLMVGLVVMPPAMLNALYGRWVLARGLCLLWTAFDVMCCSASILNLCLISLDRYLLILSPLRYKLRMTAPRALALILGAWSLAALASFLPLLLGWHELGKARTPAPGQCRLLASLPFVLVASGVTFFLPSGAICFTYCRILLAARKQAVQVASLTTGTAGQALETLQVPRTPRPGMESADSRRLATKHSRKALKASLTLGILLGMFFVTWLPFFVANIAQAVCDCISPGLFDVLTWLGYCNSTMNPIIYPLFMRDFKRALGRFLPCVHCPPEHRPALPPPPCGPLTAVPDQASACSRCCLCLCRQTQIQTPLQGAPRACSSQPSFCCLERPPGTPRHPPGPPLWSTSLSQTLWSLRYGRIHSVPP
# assay info: Displacement of [3H]LSD from rat recombinant 5HT6 receptor
pKi: −log10 of the molar value.
Listing: pKi of selected compounds

compound	study target	pKi
O=S(=O)(c1ccc2c(c1)O[C@H]1CNCC[C@@H]21)c1ccccc1-c1ccccc1 (racemic)	5-hydroxytryptamine receptor 6 (Rattus norvegicus, UniProt P31388)	6.87
COc1cc(OC(C)C)cc(S(=O)(=O)c2ccc3c(c2)O[C@H]2CNCC[C@@H]32)c1.Cl (single isomer, unassigned; enantiomer 1)	5-hydroxytryptamine receptor 6 (Rattus norvegicus, UniProt P31388)	7.57
COc1cc(OC(C)C)cc(S(=O)(=O)c2ccc3c(c2)O[C@H]2CNCC[C@@H]32)c1.Cl (single isomer, unassigned; enantiomer 2)	5-hydroxytryptamine receptor 6 (Rattus norvegicus, UniProt P31388)	7.26
O=S(=O)(c1cccc(Cl)c1)c1ccc2c(c1)O[C@H]1CNCC[C@@H]21 (racemic)	5-hydroxytryptamine receptor 6 (Rattus norvegicus, UniProt P31388)	7.40
